assay.target: Glutamate NMDA receptor
test.protocol: Displacement of [3H]-MK-801 binding to N-methyl-D-aspartate glutamate receptor of rat brain membranes

{"molecule": "CC(C)c1ccc2c(c1)CCC(c1ccc(C(C)(C)C)cc1)N2C(=N)N (stereo not drawn)", "Ki, µM": 3.84}
{"molecule": "CCC(C)c1ccc(NC(=N)Nc2ccc(C(C)CC)cc2)cc1 (stereo not drawn)", "Ki, µM": 4.33}
{"molecule": "COc1ccc(/N=C(\\N)Nc2ccc3c4c(cccc24)CC3)c2ccccc12", "Ki, µM": 2.49}
{"molecule": "CCC(C)c1ccc(N2CCN(c3ccc(C(C)CC)cc3)C2=N)cc1 (stereo not drawn)", "Ki, µM": 13.5}
{"molecule": "CCC(C)c1ccc(N2C(N)=NCC2c2ccc(C(C)C)cc2)cc1 (stereo not drawn)", "Ki, µM": 4.41}
{"molecule": "CCC(C)c1ccc(N(C)C(=N)N(C)c2ccc(C(C)CC)cc2)cc1 (stereo not drawn)", "Ki, µM": 3.34}
{"molecule": "CCC(C)c1ccc(N2CCCN(c3ccc(C(C)CC)cc3)C2=N)cc1 (stereo not drawn)", "Ki, µM": 35.1}
{"molecule": "CCC(C)c1ccc(N(Cc2ccc(C(C)(C)C)cc2)C(=N)N)cc1 (stereo not drawn)", "Ki, µM": 3.69}

###

test.protocol: In vitro inhibition of Calcium flux into brain synaptosomes (Values are means of at least three separate determinations)
Format: functional, subcellular, Rattus norvegicus

{"molecule": "CC(C)c1ccc2c(c1)CCC(c1ccc(C(C)(C)C)cc1)N2C(=N)N (centres undefined)", "IC50 [nM]": 900}
{"molecule": "CCC(C)c1ccc(N(C)C(=N)N(C)c2ccc(C(C)CC)cc2)cc1 (centres undefined)", "IC50 [nM]": 2500}
{"molecule": "COc1ccc(/N=C(\\N)Nc2ccc3c4c(cccc24)CC3)c2ccccc12", "IC50 [nM]": 2700}
{"molecule": "CCC(C)c1ccc(N2CCCN(c3ccc(C(C)CC)cc3)C2=N)cc1 (centres undefined)", "IC50 [nM]": 390}

###

assay.target: Sodium channel protein type 2 subunit alpha (Rattus norvegicus)
Sequence (P04775 whole entry): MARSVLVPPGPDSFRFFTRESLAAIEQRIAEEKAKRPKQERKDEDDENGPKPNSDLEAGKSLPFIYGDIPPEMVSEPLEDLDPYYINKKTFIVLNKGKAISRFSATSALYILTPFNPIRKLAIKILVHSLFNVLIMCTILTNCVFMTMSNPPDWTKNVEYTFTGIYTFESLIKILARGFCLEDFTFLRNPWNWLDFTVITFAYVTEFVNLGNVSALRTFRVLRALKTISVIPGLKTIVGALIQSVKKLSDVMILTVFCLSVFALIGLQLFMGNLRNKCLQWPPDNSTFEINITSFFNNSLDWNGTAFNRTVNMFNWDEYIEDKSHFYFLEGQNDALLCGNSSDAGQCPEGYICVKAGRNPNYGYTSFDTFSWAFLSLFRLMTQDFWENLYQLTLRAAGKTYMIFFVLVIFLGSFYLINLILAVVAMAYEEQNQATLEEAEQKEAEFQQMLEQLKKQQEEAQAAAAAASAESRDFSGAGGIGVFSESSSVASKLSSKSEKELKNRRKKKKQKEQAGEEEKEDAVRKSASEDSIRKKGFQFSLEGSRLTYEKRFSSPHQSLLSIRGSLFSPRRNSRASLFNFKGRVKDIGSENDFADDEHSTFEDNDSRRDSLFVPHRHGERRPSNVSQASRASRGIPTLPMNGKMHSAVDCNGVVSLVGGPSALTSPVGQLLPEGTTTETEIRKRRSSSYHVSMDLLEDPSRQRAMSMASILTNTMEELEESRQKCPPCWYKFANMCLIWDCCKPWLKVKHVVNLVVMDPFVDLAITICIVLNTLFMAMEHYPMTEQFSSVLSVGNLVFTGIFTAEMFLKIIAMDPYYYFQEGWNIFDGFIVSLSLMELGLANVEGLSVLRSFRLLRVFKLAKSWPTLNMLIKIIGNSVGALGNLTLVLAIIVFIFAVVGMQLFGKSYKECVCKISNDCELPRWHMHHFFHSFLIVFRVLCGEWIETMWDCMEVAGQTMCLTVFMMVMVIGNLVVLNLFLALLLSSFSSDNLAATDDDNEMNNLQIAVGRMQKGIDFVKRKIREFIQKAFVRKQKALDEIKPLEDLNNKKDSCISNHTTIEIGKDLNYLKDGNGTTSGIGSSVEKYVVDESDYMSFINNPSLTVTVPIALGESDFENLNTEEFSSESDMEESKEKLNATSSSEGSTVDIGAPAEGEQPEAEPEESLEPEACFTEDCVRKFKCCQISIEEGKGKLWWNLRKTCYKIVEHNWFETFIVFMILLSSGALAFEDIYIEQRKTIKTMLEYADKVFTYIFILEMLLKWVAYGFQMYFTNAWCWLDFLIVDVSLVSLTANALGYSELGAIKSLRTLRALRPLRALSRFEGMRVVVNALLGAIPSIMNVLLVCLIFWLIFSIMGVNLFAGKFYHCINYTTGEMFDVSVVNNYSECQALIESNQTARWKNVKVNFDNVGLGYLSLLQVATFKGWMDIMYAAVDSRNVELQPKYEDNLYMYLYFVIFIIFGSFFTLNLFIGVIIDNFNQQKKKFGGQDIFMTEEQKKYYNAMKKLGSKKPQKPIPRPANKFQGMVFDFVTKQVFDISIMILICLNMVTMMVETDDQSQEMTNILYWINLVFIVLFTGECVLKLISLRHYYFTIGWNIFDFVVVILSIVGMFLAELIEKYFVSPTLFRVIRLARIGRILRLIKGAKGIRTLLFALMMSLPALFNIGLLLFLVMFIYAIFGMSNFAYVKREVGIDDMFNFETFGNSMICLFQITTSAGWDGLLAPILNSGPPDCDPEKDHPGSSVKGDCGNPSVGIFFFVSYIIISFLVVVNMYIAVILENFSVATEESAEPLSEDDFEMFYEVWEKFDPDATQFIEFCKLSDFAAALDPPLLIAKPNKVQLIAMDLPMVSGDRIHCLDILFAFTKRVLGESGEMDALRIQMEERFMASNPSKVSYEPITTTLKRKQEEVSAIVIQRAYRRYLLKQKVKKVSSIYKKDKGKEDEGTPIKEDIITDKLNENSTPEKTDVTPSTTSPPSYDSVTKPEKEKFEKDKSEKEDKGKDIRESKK
test.protocol: In vitro inhibition of [14C]- guanidinium influx in Chinese hamster ovary (CHO) cells expressing rat brain sodium channel type IIA (CNaIIA-1)
Format: functional, cell-based
pIC50: −log10 of the molar value.
As shown below, each of these compounds has a reported pIC50 value.
readout.label: pIC50

{"compound": "CCC(C)c1ccc(N2CCCN(c3ccc(C(C)CC)cc3)C2=N)cc1 (stereo unspecified)", "assay.target": "Sodium channel protein type 2 subunit alpha (Rattus norvegicus)", "readout.label": "pIC50", "censoring.qualifier": "=", "value.observed": 7.22}
{"compound": "CC(C)c1ccc2c(c1)CCC(c1ccc(C(C)(C)C)cc1)N2C(=N)N (stereo unspecified)", "assay.target": "Sodium channel protein type 2 subunit alpha (Rattus norvegicus)", "readout.label": "pIC50", "censoring.qualifier": "=", "value.observed": 6.34}
{"compound": "CCC(C)c1ccc(N(C)C(=N)N(C)c2ccc(C(C)CC)cc2)cc1 (stereo unspecified)", "assay.target": "Sodium channel protein type 2 subunit alpha (Rattus norvegicus)", "readout.label": "pIC50", "censoring.qualifier": "=", "value.observed": 6.00}
{"compound": "COc1ccc(/N=C(\\N)Nc2ccc3c4c(cccc24)CC3)c2ccccc12", "assay.target": "Sodium channel protein type 2 subunit alpha (Rattus norvegicus)", "readout.label": "pIC50", "censoring.qualifier": "=", "value.observed": 5.79}
{"compound": "N=C(Nc1ccccc1)Nc1ccccc1", "assay.target": "Sodium channel protein type 2 subunit alpha (Rattus norvegicus)", "readout.label": "pIC50", "censoring.qualifier": "<", "value.observed": 4.85}
{"compound": "CCC(C)c1ccc(N2CCN(c3ccc(C(C)CC)cc3)C2=N)cc1 (stereo unspecified)", "assay.target": "Sodium channel protein type 2 subunit alpha (Rattus norvegicus)", "readout.label": "pIC50", "censoring.qualifier": "=", "value.observed": 7.22}
